TARGET SYSTEM: HLA-A*02:01_… (HLA-PEPTIDE target G8), recombinant complex (human, enzymatically biotinylated (BirA) for screening and functional assays)
EXPERIMENT: scFv PPE ELISA
OBSERVABLE: fold selective binding to target pHLA over minipool of negative control pHLAs

G8(1D02) scFv (scFv, V domains shown) VH: EVQLLESGGGLVQPGGSLRLSCAASGFTFSSYWMSWVRQAPGKGLEWVSSISGRGDNTYYADSVKGRFTISRDNSKNTLYLQMNSLRAEDTAVYYCARASGSGYYYYYGMDVWGQGTTVTVSS VL: DIQMTQSPSSLSASVGDRVTITCQASQDISNYLNWYQQKPGKAPKLLIYAASSLQSGVPSRFSGSGSGTDFTLTISSLQPEDFATYYCQQSYSAPYTFGGGTKVEIK = ≥ 3 fold
G8(1A03) scFv (scFv, V domains shown) VH: QVQLVQSGAEVKKPGASVKVSCKASGGTFSRSAITWVRQAPGQGLEWMGWINPNSGATNYAQKFQGRVTMTRDTSTSTVYMELSSLRSEDTAVYYCARDDYGDYVAYFQHWGQGTLVTVSS VL: DIQMTQSPSSLSASVGDRVTITCRASQSITSYLNWYQQKPGKAPKLLIYDASNLETGVPSRFSGSGSGTDFTLTISSLQPEDFATYYCQQNYNSVTFGQGTKLEIK = ≥ 3 fold

Next item in the queue.
Query :: What value of fold selective binding to target pHLA over minipool of negative control pHLAs has been recorded for this entry: G8(1H08) scFv (scFv, V domains shown, also called G8-P1H08) VH: QVQLVQSGAEVKKPGASVKVSCKASGYTFGNYFMHWVRQAPGQGLEWMGMVNPSGGSETFAQKFQGRVTMTRDTSTSTVYMELSSLRSEDTAVYYCAASTWIQPFDYWGQGTLVTVSS VL: DIQMTQSPSSLSASVGDRVTITCRASQGINSYLAWYQQKPGKAPKLLIYDASNLETGVPSRFSGSGSGTDFTLTISSLQPEDFATYYCQQHNSYPPTFGQGTKLEIK
Result :: ≥ 3 fold
